- SYSTEM: HLA-A*1101 (human)
- ASSAY_EXPLANATION: iTopia off-rate
Each entry below carries its reported t1/2.
Reply with just the number.

BINDER: IFSCIKKTK [cdr2 429-437 IFSCIKKTK]
EXPERIMENTAL_READOUT: t1/2
READOUT_NUMBER: 0.92
//
BINDER: GATGAYRAR [cdr2 238-246 GATGAYRAR]
EXPERIMENTAL_READOUT: t1/2
READOUT_NUMBER: 0.3
//
BINDER: LQSQVEELK [cdr2 129-137 LQSQVEELK]
EXPERIMENTAL_READOUT: t1/2
READOUT_NUMBER: 1.1

Value of t1/2 reported for the binder PDSLYVPFK [cdr2 276-284 PDSLYVPFK] is 0.41
